# credit: ChEMBL document CHEMBL1159018

experiment: Cytotoxicity against CHOK1 cells; assay type: cell-based, Cricetulus griseus; conditions: chinese hamster, CHO-K1 cells; read-out: ED50 (the source's name)
Documented CC50 across a set of compounds
Express the result in µg/mL but write the number alone.

CC1=CCC[C@H](C)[C@@]1(C)CC/C(C)=C/CC/C(C)=C/CS(=O)(=O)CCNC(=N)N
5.7

# next compound below
In plain terms, `CC1=CCC[C@H](C)[C@@]1(C)CC/C(C)=C/CC/C(=C/CS(=O)(=O)CCNC(=N)N)CO` has a documented CC50 of 2.21
